Each entry below carries its recorded pKi.
- System Tested: hCA I (Homo sapiens, UniProt P00915)
- Construct: we have purified CA I and II (hCA I and hCA II) from human erythrocytes
- Sequence (P00915 whole entry): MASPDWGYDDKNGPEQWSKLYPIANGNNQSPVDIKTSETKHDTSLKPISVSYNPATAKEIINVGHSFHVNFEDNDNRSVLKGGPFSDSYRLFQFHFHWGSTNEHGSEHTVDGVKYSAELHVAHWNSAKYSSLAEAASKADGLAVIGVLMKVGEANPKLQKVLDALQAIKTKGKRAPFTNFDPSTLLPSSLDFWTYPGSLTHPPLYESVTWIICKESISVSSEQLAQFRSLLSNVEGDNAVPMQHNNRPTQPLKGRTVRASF
- Method Notes: hCA I inhibition, esterase assay with 4-nitrophenylacetate as substrate
- Conditions Used: 4-nitrophenylacetate substrate, mean from at least three determinations, enzyme purified from human erythrocytes
pKi: −log10 of the molar value.
Property Label: pKi

        structure_smiles_string                         system_tested  numeric_value
0         Cn1c(N)cc(=O)n(C)c1=O  hCA I (Homo sapiens, UniProt P00915)           7.07
1  O=C(O)c1cc(=O)[nH]c(=O)[nH]1  hCA I (Homo sapiens, UniProt P00915)           6.14
2      Cn1c(N)c(N)c(=O)n(C)c1=O  hCA I (Homo sapiens, UniProt P00915)           6.99
3    O=C(O)c1c[nH]c(=O)[nH]c1=O  hCA I (Homo sapiens, UniProt P00915)           6.34
